Tested on: HEK-293T
Assay: Incucyte cell viability with HEK293T; note: filed as whole numbers so only -1 and 0 and 1 occur
Type: toxicity, cell-based
Conditions: human, 0 h, 10 µM, compound concentration 10 uM, replicate number 2, timepoint 0 hours
Recorded Growth Rate values for a group of molecules are listed next.
# print the numeric value only

Fill in: Growth Rate of CCCn1c(=O)c2[nH]c(-c3cnn(Cc4cccc(C(F)(F)F)c4)c3)nc2n(CC)c1=O is ___
0

====

Tested on: Fibroblast
Test: Multiplex assay against human fibroblast
Type: toxicity, cell-based
Details: 48 h, 1 µM, compound concentration 1 uM, replicate 2
Measured Metric: Total Cell Count
# print the numeric value only

Solved entries:
Cl.O=c1c2cccn2c2ccccc2n1CCCN1CCC(c2ccc(Cl)cc2)CC1 = 120
CCOc1cc2ncc(C#N)c(Nc3ccc(OCc4ccccn4)c(Cl)c3)c2cc1NC(=O)/C=C/CN(C)C = 123
O=C(Nc1ccc(Cl)cc1)Nc1cccc(-c2cccc(N3CCCC3)n2)c1 = 107
CN(C)C(=O)C(CCN1CCC(O)(c2ccc(Cl)cc2)CC1)(c1ccccc1)c1ccccc1.Cl [LOPERAMIDE HYDROCHLORIDE] = 137
Cc1cn(-c2cc(NC(=O)c3ccc(C)c(Nc4nccc(-c5cccnc5)n4)c3)cc(C(F)(F)F)c2)cn1 = 100

Fill in: Total Cell Count of CCn1c(=O)c(-c2ccc(-c3cncs3)cc2Cl)cc2cnc(Nc3ccc(N4CCN(C)CC4)cc3)nc21 is ___
88

Fill in: Total Cell Count of CCN1CCN(Cc2ccc(Nc3ncc(F)c(-c4cc(F)c5nc(C)n(C(C)C)c5c4)n3)nc2)CC1.CS(=O)(=O)O is ___
199

Fill in: Total Cell Count of CCOC(=O)c1c(C)[nH]c2ccc3c(c12)CN1CCc2cc(OC)ccc2C1O3 (configuration not stated) is ___
185

Fill in: Total Cell Count of O=C1NC(=O)C(c2cnc3ccccn23)=C1c1cn2c3c(cc(F)cc13)CN(C(=O)N1CCCCC1)CC2 is ___
86

Fill in: Total Cell Count of S=C(NCCCc1c[nH]cn1)NCCCN(Cc1ccc(Cl)c(Cl)c1)c1ccc(Br)cn1 is ___
220

Fill in: Total Cell Count of CCOc1cc(C(=O)N2CCC(N3CCN(C)CC3)CC2)ccc1Nc1ncc2c(n1)N(C1CCCC1)c1ccccc1C(=O)N2C is ___
116

Fill in: Total Cell Count of CCCS(=O)(=O)c1nc(NC2CC2)cc(-c2ccc3c(ccn3C3CC(C)(C)NC(C)(C)C3)c2)n1 is ___
110
